Dear all, I have gathered published IC50 values for Cyclin-dependent kinase 12 (Homo sapiens); the list follows.

Prompt line: Item under review: `C=CC(=O)Nc1ccc(C(=O)N2CC[C@@H](Nc3ncc(Cl)cn3)C2)cc1OC` . Reported IC50?
Response line: < 100 nM

Prompt line: Same lookup for `C=CC(=O)Nc1ccc2c(N3CC[C@@H](Nc4ncc(C5CC5)cn4)C3)ncnc2c1` , please.
Response line: ≤ 100 nM

Prompt line: Do the same for `Cn1cc(-c2cnn3c(NCc4nc5cccc(Cl)c5[nH]4)nc(N4CCC(F)(F)CC4)nc23)cn1` please
Response line: 1280 nM

Prompt line: Then this molecule: `C=CC(=O)Nc1ccc2c(N3CC[C@@H](Nc4ncc(C(F)(F)F)cn4)C3)ncnc2c1`
Response line: ≤ 100 nM

Prompt line: Next: `C=CC(=O)Nc1ccc(C(=O)N2CC[C@@H](Nc3ncc(Cl)c(OC)n3)C2)cc1Cl`
Response line: < 100 nM

Prompt line: Try this molecule next: C=CC(=O)Nc1ccc(C(=O)N2CC[C@@H](Nc3nccc(-c4cncs4)n3)C2)cc1 (stereo in doubt)
Response line: 100 to 1000 nM

Prompt line: Also `C=CC(=O)Nc1ccc(C(=O)N2CC[C@@H](Nc3ncc(Cl)c(OC)n3)C2)cc1N1CCN(C)CC1` ?
Response line: < 100 nM

Prompt line: Queued: `C#Cc1cnc(N[C@@H]2CCN(c3nccc4cc(N(C)C(=O)C=C)ccc34)C2)nc1`
Response line: ≤ 100 nM

====

IC50 for Cyclin-dependent kinase 12 (Homo sapiens, UniProt Q9NYV4) - collated from the literature.

Prompt line: For `C=CC(=O)Nc1ccc2c(N3CC[C@@H](Nc4ncc(Br)cn4)C3)ncnc2c1` , what is its reported IC50?
Response line: ≤ 100 nM

Prompt line: Try the compound `C=C(C)C(=O)N1CCC=C(c2ccc(CC(=O)Nc3cc(C4CC4)[nH]n3)cn2)C1`
Response line: 140 nM

Prompt line: Same question, `C=CC(=O)Nc1ccc(C(=O)N2CC[C@@H](Nc3ccc(C4CC4)cn3)C2)cc1` this time
Response line: 100 to 1000 nM

Prompt line: Same for `C=CC(=O)Nc1ccc(C(=O)N2CC[C@@H](Nc3cc(OC)c(Cl)cn3)C2)cc1`
Response line: < 100 nM

====

Literature-derived IC50 for Cyclin-dependent kinase 12 (Homo sapiens, UniProt Q9NYV4) follows.

Prompt line: Reported IC50 for Cyclin-dependent kinase 12 (Homo sapiens, UniProt Q9NYV4), given `C=CC(=O)Nc1ccc2c(N3CC[C@@H](Nc4ncc5ccccc5n4)C3)ncnc2c1` ?
Response line: ≤ 100 nM

Prompt line: Okay, and `C=CC(=O)Nc1ccc(C(=O)N2CC[C@@H](Nc3ncc(F)c(OC4CC4)n3)C2)cc1` ?
Response line: 100 to 1000 nM

Prompt line: Same for C=CC(=O)NC1CCN(c2ccc(C(C)C(=O)Nc3cc(C4CC4)[nH]n3)cc2)CC1 (stereo not shown)
Response line: 235 nM

Prompt line: Another compound to look at: `C=CC(=O)Nc1ncc(C(=O)N2CC[C@@H](Nc3ncc(Cl)c(OC)n3)C2)s1`
Response line: 100 to 1000 nM
